test system: HCM-SANG-0291-C15 (oesophageal cancer organoid); assay: activity (1 - area under the dose-response curve within the screened range) (fraction); higher = more sensitive; conditions: ECM percentage in culture prior to screening 80 %; treatment time: 72 h
Classification field: enter 1 for activity values not below 0.08, -1 for values below it.

Smiles	Group
Cn1cc(C2=C(c3ccc(Cl)cc3Cl)C(=O)NC2=O)c2ccccc21	-1
CCC1=C[C@@H]2CN(C1)Cc1c([nH]c3ccccc13)[C@@](C(=O)OC)(c1cc3c(cc1OC)N(C)[C@H]1[C@@](O)(C(=O)OC)[C@H](OC(C)=O)[C@]4(CC)C=CCN5CC[C@]31[C@@H]54)C2	1
C[C@@]1(C(=O)Nc2ccc(F)nc2)CCCN1c1nc(Nc2cc(C3CC3)n[nH]2)c2cccn2n1	1
CNC(=O)c1ccccc1Sc1ccc2c(/C=C/c3ccccn3)n[nH]c2c1	-1
CN(C)C(=O)c1cc2cnc(Nc3ccc(N4CCNCC4)cn3)nc2n1C1CCCC1	-1
Cc1cccc(-c2[nH]c(C(C)(C)C)nc2-c2ccc3c(c2)OCO3)n1	-1
Nc1ccccc1NC(=O)c1ccc(CNC(=O)OCc2cccnc2)cc1	1
O=C(c1cc(Cc2n[nH]c(=O)c3ccccc23)ccc1F)N1CCN(C(=O)C2CC2)CC1	-1
COc1cc(Nc2ncc3c(n2)-c2ccc(Cl)cc2C(c2c(F)cccc2OC)=NC3)ccc1C(=O)O	-1
CC/C(=C(\c1ccccc1)c1ccc(OCCN(C)C)cc1)c1ccccc1	-1
O=C1NC(=NCc2cccs2)S/C1=C\c1ccc2ncccc2c1	-1
CCNC(=O)c1noc(-c2cc(C(C)C)c(O)cc2O)c1-c1ccc(CN2CCOCC2)cc1	-1
COc1cccc2cc(-c3nc([C@H]4CC[C@H](C(=O)O)CC4)n4ncnc(N)c34)[nH]c12	-1
Cc1cc(Nc2cc(N3CCN(C)CC3)nc(Sc3ccc(NC(=O)C4CC4)cc3)n2)n[nH]1	-1
CC(C)C[C@H](NC(=O)[C@H](Cc1ccccc1)NC(=O)c1cnccn1)B(O)O	1
Cc1nc(Nc2ncc(C(=O)Nc3c(C)cccc3Cl)s2)cc(N2CCN(CCO)CC2)n1	-1
CN(C)C/C=C/C(=O)Nc1cc2c(Nc3ccc(F)c(Cl)c3)ncnc2cc1O[C@H]1CCOC1	1
CN(C)CCCOc1ccc(-c2ccc3ncc4c(c3c2)n(C2CCOCC2)c(=O)n4C)cn1	-1
CN1CCN(CCOc2cc(OC3CCOCC3)c3c(Nc4c(Cl)ccc5c4OCO5)ncnc3c2)CC1	1
CC(=O)O[C@@]12CO[C@@H]1C[C@H](O)[C@@]1(C)C(=O)[C@H](O)C3=C(C)[C@@H](OC(=O)[C@H](O)[C@@H](NC(=O)OC(C)(C)C)c4ccccc4)C[C@@](O)([C@@H](OC(=O)c4ccccc4)[C@H]21)C3(C)C	1
CC1(C)CCC(c2ccc(Cl)cc2)=C(CN2CCN(c3ccc(C(=O)NS(=O)(=O)c4ccc(N[C@H](CCN5CCOCC5)CSc5ccccc5)c(S(=O)(=O)C(F)(F)F)c4)cc3)CC2)C1	1
CC(C)(C)c1nc(-c2cccc(NS(=O)(=O)c3c(F)cccc3F)c2F)c(-c2ccnc(N)n2)s1	-1
CC1(C)CCC(CN2CCN(c3ccc(C(=O)NS(=O)(=O)c4ccc(NCC5CCOCC5)c([N+](=O)[O-])c4)c(Oc4cnc5[nH]ccc5c4)c3)CC2)=C(c2ccc(Cl)cc2)C1	-1
Nc1ccn([C@@H]2O[C@H](CO)[C@@H](O)C2(F)F)c(=O)n1	1
